# assayedSystem: CrufCSP1
# measurementProtocol: Fluorescence competitive binding assay with 1-NPN as probe
# experimentalContext: recombinant CrufCSP1 2 μM, 1-NPN 2 μM, ligand 0 to 30 μM, tris-HCl pH 7.4
Rule: IC50 below 20 µM gives rule met. Equal to or above 20 µM gives rule not met.

[in] Here's an entry: CCCCCCCC(=O)N(C)C [N,N-Dimethylcaprylamide] . Is its IC50 below 20 µM?
[out] rule not met

[in] Again, but for CC/C=C\CCOC(C)=O [cis-3-Hexenyl acetate]
[out] rule not met

[in] Again, but for CC(=O)c1cc(C)ccc1O [2-Hydroxy-5-methylacetophenone]
[out] rule not met

[in] Again, but for CCCCCCCC=O
[out] rule met

[in] Again, but for CC/C=C\CCO [cis-3-Hexen-1-ol]
[out] rule not met

[in] Again, but for O=Cc1ccccc1
[out] rule met

[in] Again, but for CCCCCC(C)=O
[out] rule not met

[in] Again, but for C=CC(C)(O)CCC=C(C)C (stereo not shown)
[out] rule not met

[in] Again, but for C=C/C=C(\C)CCC=C(C)C
[out] rule not met

[in] Again, but for CCCCCCCCCCCO
[out] rule not met

[in] Again, but for CCCCCCC=O
[out] rule not met

[in] Again, but for CCCCCCCCCCCCCCCC(=O)O
[out] rule not met

[in] Again, but for CCCCCCCCCCCCCCO
[out] rule not met
